GI50 values by entry
- Test system: KM12
- assay-info: NCI tumour cell line growth inhibition, 48 h
Active and inactive are the calls of the source. Rule as the data show it: active = GI50 up to about 1.1 µM and inactive = higher.

Before answering, review these 6 worked examples.
compound	endpoint-result
CCN(CC)CCN1CCc2c([nH]c3ccccc23)C1c1cccnc1 (stereo not drawn)	> 100 µM (inactive)
CNC(C#N)c1ccc(OC)cc1 (stereo not drawn)	78.9 µM (inactive)
C[C@@H]1[C@@H](c2ccccc2)O[B-](c2ccccc2)(c2ccccc2)N1C	52.1 µM (inactive)
CCOC(=O)c1sc2nc(SC)nc3c2c1NCN3C1CC1	> 100 µM (inactive)
S=c1[nH]nc(COc2ccc3c(c2)CCCC3)n1/N=C/c1ccc(Cl)cc1	16.3 µM (inactive)
C[C@@H](NC1CCC[C@H]1O)c1ccccc1 (stereo partly drawn)	> 100 µM (inactive)

Field GI50 (entry CNC(=O)c1ccccc1-[s+]1c2ccccc2c(=O)n1C (stereo not drawn) ) reads > 100 µM (inactive)

Measured GI50 of O=S(=O)(O)SCCNCCCCCC1CCCCC1 : 2.79 µM (inactive)

====

- System: M14
- assay-info: NCI tumour cell line growth inhibition, 48 h
Calls of active or inactive are those of the source. No stated cut-off is given here; in the data, active = GI50 up to about 1.1 µM and inactive = higher.
Entries and their GI50 values follow.

compound	GI50
COc1ccc(C2=Nc3ccccc3N=C(SC)C2)cc1	59.7 µM (inactive)
CCOP(=O)(OCC)C1CCCCOC1=O (stereo not given)	> 100 µM (inactive)
COc1cc2c3c(n(C)c(=O)c2cc1OC)-c1cc2c(cc1/C3=C\CCCI)OCO2	2.61 µM (inactive)

Sample COC(=O)CCc1ccc(CCC(=O)OC)cc1 ; GI50 observed: > 100 µM (inactive)

The reported GI50 of the compound CC(=O)N1CCN(C23OC4(N5CCN(C(C)=O)CC5)C5C6CC(C7C6C4C72)C53)CC1 (stereo not given) was > 100 µM (inactive)

Consider CC(C)C(NC(=O)C(Cc1ccccc1)NC(=O)[C@H]1CCC[C@H]1NC(=O)C(Cc1ccc(OC(C)(C)C)cc1)NC(=O)OC(C)(C)C)C(N)=O (stereo not given in full) . Its measured GI50 is 18 µM (inactive)

GET /value?item= O=S(=O)(O)c1c(/N=N/c2c(O)ccc3ccccc23)ccc2ccccc12 &field=GI50 returns > 100 µM (inactive)

For record OCC(O)C(O)C(O)c1nn(-c2ccccc2)c2nc3cc(Cl)c(Cl)cc3nc12 (stereo not given) the listed GI50 is 17.7 µM (inactive)

Short answer for Cn1cc(S(=O)(=O)NC(=O)Nc2ccc(Cl)cc2)c(=O)c2ccc(Cl)cc21 : GI50 was > 100 µM (inactive)

Lab book: GI50 of Cc1nc2cc([N+](=O)[O-])ccc2c(NCCCN(C)C)c1C noted as 13.8 µM (inactive)

====

- Test system: SNB-78
- assay-info: NCI tumour cell line growth inhibition, 48 h
Activity calls are given as the source filed them. Rule as the data show it: active = GI50 up to about 1.1 µM and inactive = higher.
This section presents compounds with their documented GI50 values.

Entry under test: CCCCCCNC(=O)CCN(C(=O)O)S(=O)(=O)c1ccc(NC(=O)c2ccccc2)cc1 . Its GI50 was > 100 µM (inactive)

get_value(item= CC(C)C(Nc1c2ccccc2[n+]([O-])c2ccccc12)C(=O)O (stereo unspecified) , readout=GI50) returns > 100 µM (inactive)

====

- Tested on: UACC-62
- assay-info: NCI tumour cell line growth inhibition, 48 h
Activity calls are given as the source filed them. No stated cut-off is given here; in the data, active = GI50 up to about 1.1 µM and inactive = higher.
Overview of reported GI50 across a group of compounds:

compound	assayed-system	endpoint-result
O=CC1CCC=CC1NC(=O)OCc1ccccc1 (stereo not given)	UACC-62	42.5 µM (inactive)
CC(=O)Oc1c(C)cc2c(c1C)C(C)CN2C(C)=O (stereo not given)	UACC-62	> 100 µM (inactive)
c1cncc(C(Nc2cccc3cccnc23)Nc2cccc3cccnc23)c1	UACC-62	> 100 µM (inactive)

Summary for this compound, COC(=O)c1c(OC(C)=O)ccc2c1c1c(OC(C)=O)c3ccccc3c(OC(C)=O)c1n2Cc1cc(OC)cc(OC)c1 : GI50 is 4.41 µM (inactive)

The compound listed as Nn1c(S)nnc1NNC(=O)C(=O)Nc1cc(Cl)c(Cl)cc1Cl has a reported GI50 of > 100 µM (inactive)

For reference, reported GI50 for CC(=O)OC1CC(O)CC2=CCC3C4CCC(C(C)(O)C(O)CC5COC(=O)C5C)C4(C)CCC3C21C (stereo not given) stands at 21.4 µM (inactive)

Entry COc1cc2c3c(n(C)c(=O)c2cc1OC)-c1cc2c(cc1/C3=C\CCCI)OCO2 — recorded GI50 = 4.49 µM (inactive)

GET /value?item= COCC(=O)OC1CCn2c1nc1c2C(=O)C(C)=C(NC(C)=O)C1=O (stereo not given) &field=GI50 returns 3.27 µM (inactive)

Reported GI50 ( CC[P+](C#Cc1ccccc1)(c1ccccc1)c1ccccc1 ) = 1.63 µM (inactive)

Value of measured GI50 for the entry N=c1oc2ccccc2cc1-c1nc2ccccc2c(=O)[nH]1 : 27.8 µM (inactive)
